Tested on: lymphocytic leukemia P-388
method description: P-388 lymphocytic leukemia test in mice (NCI Protocol 1.200)
Assay type: in vivo, CDF1 female mice
experimental conditions: 12.5 mg/kg/inj, daily for 5 days
# reported BWD (body weight difference vs control); entries follow
A complete answer gives the number and then names the unit.

Illustrative cases are given below, each with its answer.
compound: CSc1nc(COC(=O)NC(C)C)c(COC(=O)NC(C)C)n1-c1ccccc1
result: -0.2 g

compound: CC(C)NC(=O)OCc1ncn(-c2ccccc2)c1COC(=O)NC(C)C [B, reference compound]
result: -0.4 g

compound: CSc1nc(COC(=O)NC(C)C)c(COC(=O)NC(C)C)n1Cc1ccccc1
result: -0.2 g

compound: CSc1nc(COC(=O)NC(C)C)c(COC(=O)NC(C)C)n1C
result: 2.6 g

compound: CNC(=O)OCc1nc(SC)n(C)c1COC(=O)NC
result: -1.2 g

compound: CNC(=O)OCc1ncn(-c2ccccc2)c1COC(=O)NC [A, reference compound]
result: -0.4 g

Now take the following compound into account.
Per the records, this compound ( `CNC(=O)OCc1nc(-c2ccccc2)n(C)c1COC(=O)NC` ) has BWD (body weight difference vs control) equal to -0.2 g

###

Test system: lymphocytic leukemia P-388
method description: P-388 lymphocytic leukemia test in mice (NCI Protocol 1.200)
Format: in vivo, CDF1 female mice
experimental conditions: 200 mg/kg/inj, daily for 5 days, day 5
Known Tox.Day Surv. (survivors/animals tested) of a selection of compounds

compound: CNC(=O)OCc1nc(SC)n(-c2ccccc2)c1COC(=O)NC [C]
Tox.Day Surv. (survivors/animals tested): 5/5
--
compound: CNC(=O)OCc1nc(-c2ccccc2)n(C)c1COC(=O)NC [G]
Tox.Day Surv. (survivors/animals tested): 5/5
--
compound: CNC(=O)OCc1ncn(-c2ccccc2)c1COC(=O)NC [A, reference compound]
Tox.Day Surv. (survivors/animals tested): 5/5

Notebook: CNC(=O)OCc1nc(SC)n(Cc2ccccc2)c1COC(=O)NC [E] , Tox.Day Surv. (survivors/animals tested) read as 6/6

###

response vs control in vivo at 50 mg/kg values, listed per item
Tested on: lymphocytic leukemia P-388
method description: P-388 lymphocytic leukemia test in mice (NCI Protocol 1.200)
Format: in vivo, CDF1 female mice
experimental conditions: Mus musculus, P388, 120 h; 50 mg/kg/inj, daily for 5 days; read-out: % T/C (mean survival time)
The figure you give is taken to be in %; do not add the unit.

Consider the following illustrative entries.
compound: CC(C)NC(=O)OCc1ncn(-c2ccccc2)c1COC(=O)NC(C)C [B, reference compound]
scale unit: %
measured number: 97

compound: COc1nc(COC(=O)NC(C)C)c(COC(=O)NC(C)C)n1C
scale unit: %
measured number: 147

compound: CSc1nc(COC(=O)NC(C)C)c(COC(=O)NC(C)C)n1C
scale unit: %
measured number: 130

compound: CSc1nc(COC(=O)NC(C)C)c(COC(=O)NC(C)C)n1Cc1ccccc1
scale unit: %
measured number: 110

Next item in the queue.
Looking up `CSc1nc(COC(=O)NC(C)C)c(COC(=O)NC(C)C)n1-c1ccccc1` , I found its response vs control in vivo at 50 mg/kg recorded as 95

###

Tested on: lymphocytic leukemia P-388
method description: P-388 lymphocytic leukemia test in mice (NCI Protocol 1.200)
Type: in vivo, CDF1 female mice
experimental conditions: 50 mg/kg/inj, daily for 5 days
Threshold -0.5 g: BWD (body weight difference vs control) strictly smaller gives condition met, otherwise condition not met.

Answered cases to consult:
structure smiles: CNC(=O)OCc1nc(SC)n(Cc2ccccc2)c1COC(=O)NC
measured on: lymphocytic leukemia P-388
answer label: condition not met
--
structure smiles: CNC(=O)OCc1nc(SC)n(-c2ccccc2)c1COC(=O)NC
measured on: lymphocytic leukemia P-388
answer label: condition met
--
structure smiles: COc1nc(COC(=O)NC(C)C)c(COC(=O)NC(C)C)n1C
measured on: lymphocytic leukemia P-388
answer label: condition met

Now consider the entry below.
Lookup: Bench note: check whether `CSc1nc(COC(=O)NC(C)C)c(COC(=O)NC(C)C)n1-c1ccccc1` shows BWD (body weight difference vs control) below -0.5 g
Found: condition not met

###

Test system: lymphocytic leukemia P-388
method description: P-388 lymphocytic leukemia test in mice (NCI Protocol 1.200)
Assay type: in vivo, CDF1 female mice
experimental conditions: 200 mg/kg/inj, daily for 5 days
Reported BWD (body weight difference vs control) values are given for each entry in this list.
Answer format: numeric, g implied, no suffix.

Example compounds with recorded BWD (body weight difference vs control):
compound: CSc1nc(COC(=O)NC(C)C)c(COC(=O)NC(C)C)n1C [I]
BWD (body weight difference vs control) / g: -1.8

compound: CNC(=O)OCc1nc(-c2ccccc2)n(C)c1COC(=O)NC [G]
BWD (body weight difference vs control) / g: -2.2

compound: CSc1nc(COC(=O)NC(C)C)c(COC(=O)NC(C)C)n1-c1ccccc1 [D]
BWD (body weight difference vs control) / g: -2.8

For the next question, use this compound.
For the compound CC(C)NC(=O)OCc1ncn(-c2ccccc2)c1COC(=O)NC(C)C [B, reference compound] , the measured BWD (body weight difference vs control) on lymphocytic leukemia P-388 was 0.2

###

System: lymphocytic leukemia P-388
method description: P-388 lymphocytic leukemia test in mice (NCI Protocol 1.200)
Assay type: in vivo, CDF1 female mice
experimental conditions: 200 mg/kg/inj, daily for 5 days
property label: BWD (body weight difference vs control) (g)
Reply numerically in g, unit not repeated.

Check out these entries, answers already filled in.
compound: CNC(=O)OCc1nc(SC)n(Cc2ccccc2)c1COC(=O)NC [E]
property label: BWD (body weight difference vs control)
measured number: -0.4
//
compound: CSc1nc(COC(=O)NC(C)C)c(COC(=O)NC(C)C)n1Cc1ccccc1 [F]
property label: BWD (body weight difference vs control)
measured number: -2.2
//
compound: CNC(=O)OCc1ncn(-c2ccccc2)c1COC(=O)NC [A, reference compound]
property label: BWD (body weight difference vs control)
measured number: -1.2
//
compound: COc1nc(COC(=O)NC(C)C)c(COC(=O)NC(C)C)n1C [J]
property label: BWD (body weight difference vs control)
measured number: -2.6

// CNC(=O)OCc1nc(SC)n(-c2ccccc2)c1COC(=O)NC [C] : BWD (body weight difference vs control) value = -3.0

###

Tested on: lymphocytic leukemia P-388
method description: P-388 lymphocytic leukemia test in mice (NCI Protocol 1.200)
Format: in vivo, CDF1 female mice
experimental conditions: Mus musculus, P388, 120 h; 400 mg/kg/inj, daily for 5 days; read-out: % T/C (mean survival time)
property label: response vs control in vivo at 400 mg/kg
Hey, just the number and the unit after it is fine.

molecule: CSc1nc(COC(=O)NC(C)C)c(COC(=O)NC(C)C)n1-c1ccccc1
result: 100%

molecule: CSc1nc(COC(=O)NC(C)C)c(COC(=O)NC(C)C)n1C
result: 70%

molecule: COc1nc(COC(=O)NC(C)C)c(COC(=O)NC(C)C)n1C
result: 196%

The recorded response vs control in vivo at 400 mg/kg for CC(C)NC(=O)OCc1ncn(-c2ccccc2)c1COC(=O)NC(C)C [B, reference compound] is 90%

###

Test system: lymphocytic leukemia P-388
method description: P-388 lymphocytic leukemia test in mice (NCI Protocol 1.200)
Format: in vivo, CDF1 female mice
experimental conditions: 100 mg/kg/inj, daily for 5 days
BWD (body weight difference vs control) vs -1 g: less than gives label 1; not less than gives label 0.

Solved entries:
molecule: CSc1nc(COC(=O)NC(C)C)c(COC(=O)NC(C)C)n1C
measured on: lymphocytic leukemia P-388
answer label: label 1

molecule: CNC(=O)OCc1ncn(-c2ccccc2)c1COC(=O)NC [A, reference compound]
measured on: lymphocytic leukemia P-388
answer label: label 0

molecule: CSc1nc(COC(=O)NC(C)C)c(COC(=O)NC(C)C)n1-c1ccccc1
measured on: lymphocytic leukemia P-388
answer label: label 1

Please turn your attention to the following entry.
Lookup: Given `CNC(=O)OCc1nc(SC)n(C)c1COC(=O)NC` , is recorded BWD (body weight difference vs control) strictly lower than -1 g?
Found: label 1

###

Tested on: lymphocytic leukemia P-388
method description: P-388 lymphocytic leukemia test in mice (NCI Protocol 1.200)
Format: in vivo, CDF1 female mice
experimental conditions: 50 mg/kg/inj, daily for 5 days
Recorded BWD (body weight difference vs control) by entry
Please state the figure in g; there is no need to write the unit.

// below: answered molecules
molecule: CC(C)NC(=O)OCc1ncn(-c2ccccc2)c1COC(=O)NC(C)C [B, reference compound]
BWD (body weight difference vs control) / g: 0.8
//
molecule: CNC(=O)OCc1nc(SC)n(C)c1COC(=O)NC [H]
BWD (body weight difference vs control) / g: -2.6

Recorded BWD (body weight difference vs control) (molecule CSc1nc(COC(=O)NC(C)C)c(COC(=O)NC(C)C)n1C [I] ): 0.0

Looking up CNC(=O)OCc1nc(-c2ccccc2)n(C)c1COC(=O)NC [G] , I see its BWD (body weight difference vs control) listed as -0.8

Recorded BWD (body weight difference vs control) (molecule CNC(=O)OCc1ncn(-c2ccccc2)c1COC(=O)NC [A, reference compound] ): -0.8
